Tested on: K562
experiment_notes: Antiproliferative activity against human K-562 cells by MTT assay
Type: functional, cell-based
attribute_measured: IC50
Record the result as a number with its unit.

Using the record for COc1cc(Cn2c3ccccc3c(=O)c3ccccc32)cc(OC)c1 , report its IC50. 11.4 µM

---

System: CCRF-CEM
experiment_notes: Antiproliferative activity against human CCRF-CEM cells after 48 hrs by MTT assay
Format: functional, cell-based
What log10(IC50) was measured for each of the following?
# log10 transformed; quantity=IC50; unit=µM

COc1cc(Cn2c3ccccc3c(=O)c3ccccc32)cc(OC)c1: -0.15
O=c1c2ccccc2n(Cc2ccccc2)c2ccccc12: 1.72
COc1cc(Cn2c3ccccc3c(=O)c3ccccc32)cc(OC)c1OC: 0.18

Need log10(IC50) for each of these compounds.
1. Cc1cccc(Cn2c3ccccc3c(=O)c3ccccc32)c1
2. O=c1c2ccccc2n(Cc2cccc(C(F)(F)F)c2)c2ccccc12

0.94
1.56

---

What pIC50 was measured for each of the following?
System: CCRF-CEM
experiment_notes: Antiproliferative activity against human CCRF-CEM cells after 48 hrs by MTT assay
Format: functional, cell-based
pIC50: −log10 of the molar value.

Please review the following examples before continuing.
O=c1c2ccccc2[nH]c2ccccc12 [ACRIDONE]: < 4.00
CCCCOc1cc(Cn2c3ccccc3c(=O)c3ccccc32)cc(OCCCC)c1: < 4.00
COc1cc(CN2CCC(=O)CC2)cc(OC)c1OC: < 4.00
O=c1c2ccccc2n(Cc2cc(OCc3ccccc3)cc(OCc3ccccc3)c2)c2ccccc12: < 4.00
CCOc1cc(Cn2c3ccccc3c(=O)c3ccccc32)cc(OCC)c1: 5.17
CCCOc1cc(Cn2c3ccccc3c(=O)c3ccccc32)cc(OCCC)c1: 4.41
COc1cccc(Cn2c3ccccc3c(=O)c3ccccc32)c1: < 4.00

Using the record for O=c1c2ccccc2n(Cc2cccc(F)c2)c2ccccc12 , report its pIC50. 4.21
